Listed below: Anti-CD28 Fab signal in the presence of CD28 values for each entry.
biological target: T1, Anti-CD28 Fab (SEQ ID NOs: 696, 697); assay: phage binding ELISA on plate-bound anti-CD28 Fab, wells pre-incubated with CD28 antigen as competitor
T1 construct: Biotinylated and captured on neutravidin coated plates in the phage ELISA
T1 sequence (VH, as listed by the source, chain 1 of 2): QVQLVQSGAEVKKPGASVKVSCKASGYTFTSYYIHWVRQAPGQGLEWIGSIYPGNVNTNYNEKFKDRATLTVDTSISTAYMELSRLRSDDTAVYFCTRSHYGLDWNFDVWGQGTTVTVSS
T1 sequence (VL, as listed by the source, chain 2 of 2): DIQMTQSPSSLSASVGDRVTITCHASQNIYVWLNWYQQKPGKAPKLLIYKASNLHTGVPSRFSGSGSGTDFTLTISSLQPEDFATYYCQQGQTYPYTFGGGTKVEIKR
recorded metric: Anti-CD28 Fab signal in the presence of CD28

binder	recorded measurement
YCAGHSQEHIQKCL (Peptide-87 library clone, tested as clonal phage (peptide fused to pIII)) [Phage-865]	0.09
YCDGHSLQYMDKCL (Peptide-87 library clone, tested as clonal phage (peptide fused to pIII)) [Phage-855]	0.06
YCDGHAEKYMQKCL (Peptide-87 library clone, tested as clonal phage (peptide fused to pIII)) [Phage-858]	0.06
YCEGHAIEYLAKCL (Peptide-87 library clone, tested as clonal phage (peptide fused to pIII)) [Phage-859]	0.07
